system: NCI-H460 lung; assay: NCI tumour cell line growth inhibition, 48 h
READOUT NAME: TGI

Known TGI results, listed for orientation:
MOLECULE	TGI
Cc1ccc(N(C=O)c2c([N+](=O)[O-])cc([N+](=O)[O-])c3c2=[N+]([O-])CN=3)cc1	> 100 µM
CN1CCC2(CC1)N=C(SCC(=O)Nc1cnc3ccccc3c1)C(c1ccc(Br)cc1)=N2	4.28 µM
O=c1[nH]c2c(c(=O)[nH]1)SC(c1ccccc1)C2 (stereo unspecified)	> 100 µM
Cn1c(CCCC(=O)O)nc2cc(N(CCCl)CCCl)ccc21	> 100 µM
O=S(=O)(NC1=NCCN1C(=S)SN1CCn2c1nsc2=S)c1ccc(Oc2ccccc2)cc1	> 100 µM

Measured TGI, CC(=O)OC1CCC2OOC1O2 (stereo unspecified) : > 100 µM

Briefly, TGI measured for "C=C1CN=C(Nc2ccc(Cl)cc2)S1" : > 100 µM

According to the records, this molecule COc1ccc(N2C(=O)C(Cl)C2c2cc3cc(Br)ccc3nc2Cl)cc1 (stereo unspecified) displays TGI of 12.2 µM

Briefly, TGI measured for "C=C(COCO)C(C)=O" : 48.2 µM

The recorded TGI for "Cc1[nH]c(C)c(CN(C)C)c1CN(C)C" is > 100 µM

The molecule identified as "CC(C)(C)OC(=O)N(O)[C@@H]1CC[C@H](n2cnc3c(N)ncnc32)C1" registered its TGI at > 100 µM
